Just for reference, the supplement of paper PMC9170038 is where these values come from.

# Tested on: MS2 coat protein
# assay.procedure: apparent KD of MS2 coat protein; designed switch direction (-1 OFF switch, 1 ON switch): 1; higher = weaker reporter binding
# condition.parameters: Eterna round: R95; input ligand: none
readout.type: apparent KD of MS2 coat protein (nM)
Your answer should be a plain number; it is taken to be in nM.

Give the measured apparent KD of MS2 coat protein of ACAAGCUUUUUGCUCAUCUUAUGUCCGAAACAUGAGGAUCACCCAUGUAUAGAUUAUGUGUUGUUUUUGAUACAAGA [JR_SHM208A_Sub064] (puzzle: Sensor for hsa-mir-208a) . 33.1

Data request, read-out apparent KD of MS2 coat protein, for UACAAUCUAUCUGAGGAUAUCAUGAAAUAAACAUGAGGAUCACCCAUGUGCAGGAAAACUGCAUAUGAGAAGGCAGAUAGAUUGA [salish99_ss2_r3_018] (puzzle: Same State 2) 1810

Look up apparent KD of MS2 coat protein for this sequence: CAAGGACGGACACAGGAUAUCCUCACCUACACAUGAGGAUCACCCAUGUCAUAAAAGAUGGUGCAGGAGAAGGGUGCGGCGUCUA [Bibesoxe] (puzzle: Same State 2) 9.99

Query: apparent KD of MS2 coat protein; subject: AUAAGUCCGAUGCUCGUCUCUCCGUACAAACAUGAGGAUCACCCAUGUGAUCGGGAAGUAGCCCGAUCAGUAUGGCC [Erardius] (puzzle: Sensor for hsa-mir-208a) 48.3

Recorded apparent KD of MS2 coat protein for AGCUAUCGAAAACGAUAGCAAAAGCAUGUACAUGAGGAUCACCCAUGUCAUGUACAAGCUUUUUGCUCGUCUUGAAA [Zipper 23 - 9] (puzzle: Sensor for hsa-mir-208a) , please? 1390

* * *

# System: MS2 coat protein
# assay.procedure: apparent KD of MS2 coat protein; designed switch direction (-1 OFF switch, 1 ON switch): 1; higher = weaker reporter binding
# condition.parameters: input ligand: none
Lab note: compare apparent KD of MS2 coat protein against 100 nM. Equal or greater, write Satisfied. Smaller, write Not satisfied.

State whether the measured apparent KD of MS2 coat protein reaches 100 nM, counting equality as reaching it, for UUGAAGAAUAUAGGAUAUUGAAUACAUAUGUUUAACAUGAGGAUCACCCAUGUGGGUUGCGGUAUCGAGAAGGAUAAAUAAUAG [Mat - Same State NG 2 - JL mod - D13] (Eterna round: R96, puzzle: Same State NG 2) Satisfied

Hi, just wondering whether GCUAGAAAUAAAGCCAACAUGAGGAUCACCCAUGUAUGUUGGCAGGAUAUCGUAUGCAAAGCAUACGAGAAGGGCCAAACUAGC [Mat - Same State NG 3 - JL Mod - D3] (Eterna round: R96, puzzle: Same State NG 3) shows apparent KD of MS2 coat protein of 100 nM or higher. Satisfied

In plain terms: is recorded apparent KD of MS2 coat protein at least 100 nM for GGAAAGAGGUAAGGAUAUGCAUGGCUGGGACAUGAGGAUCACCCAUGUUAUAGAAGAAAUCUAGGGUAGAAGGUACAAGGAAGG [AK SSNG2-V2-9.1] (Eterna round: R96, puzzle: Same State NG 2) ? Satisfied

Exam item: decide whether the reported apparent KD of MS2 coat protein for GCGAGCGUACUUGCAACAUGAGGAUCACCCAUGUUAACUGGACAGGAUAUGGUACCGUUUCGGUACCAGAAGGGUUUAUCAUGU [JL SSNG3 3.66] (Eterna round: R96, puzzle: Same State NG 3) is at least 100 nM. Satisfied

Kindly determine if apparent KD of MS2 coat protein recorded for UUGAAGAAUUAAGGAUAUUGAAUACAUAUGUUUAACAUGAGGAUCACCCAUGUGGGUUGCGGUAUCGAGAAGGUAAAUUAAAAG [Mat - Same State NG 2 - JL mod - D2] (Eterna round: R96, puzzle: Same State NG 2) is above or exactly 100 nM. Satisfied

Is it the case that GCCGCGUUUCGCGCCUACAUGAGGAUCACCCAUGUUUGUAGGCAGGAUAUCGUUUGCUUUGCAGGCGAGAAGGGCUGUUGUGGC [salish99_SSNG3_R04_016] (Eterna round: R96, puzzle: Same State NG 3) has apparent KD of MS2 coat protein reaching or exceeding 100 nM? Not satisfied

Form field: apparent KD of MS2 coat protein at least 100 nM? Entry: GGGAGAGGCGCAGGAUAUGGUGAGGAUCACCCACUAGAAGGGUGCACAUGAGAAUCGAACAUGAGGAUCACCCAUGUUCUGAGC (Eterna round: R96, puzzle: Same State NG 1) Satisfied

// inclusive: apparent KD of MS2 coat protein at least 100 nM? input: GGAGCCGGCACCGAGGAUAUUCAUAUUAAAACAUGAGGAUCACCCAUGUAGCUCGAAAGAGCUUGGGAGAAGGCGGAUCGGCUCG [Xeonanis - 29] (Eterna round: R96, puzzle: Same State 2) Satisfied

Given CGAGCCGGCACUGAGGAUAUUCAUAUUUAAACAUGAGGAUCACCCAUGUAGGCCAGAAGGCCUUGGGAGAAGGCAGGUCGGCUCC [salish99_ss2_r3_080] (Eterna round: R96, puzzle: Same State 2) , state whether its apparent KD of MS2 coat protein is at least 100 nM. Satisfied

Exam item: decide whether the reported apparent KD of MS2 coat protein for GCUCGCGGCACAGGAUAUGGGUGCCUGUACAUGAGGAUCACCCAUGUUAAGGGACGGAUUACGAACCAGAAGGGUGUGGCAAGC [Reonisma] (Eterna round: R96, puzzle: Same State NG 2) is at least 100 nM. Satisfied

Can CCCAGGCAUGGAGGAUAUGGGAACAUGAGGAUCACCCAUGUUAACUCCGUAGGCGGCUUAAGGCACCAGAAGGCUACGGCUGGU [Eternabot solution 15] (Eterna round: R96, puzzle: Same State NG 2) be said to have apparent KD of MS2 coat protein at or above 100 nM? Not satisfied

Is apparent KD of MS2 coat protein for UUCAACUGAGGAGGAUAUGCAGAGGAUCACCCUGUAGAAGGCCUCGAAAGGAGGAUAUGCAGAGGAUCACCCUGUAGAAGGCCU [pwkr ssNG DX.19] (Eterna round: R96, puzzle: Same State NG 1) at or above 100 nM? Satisfied

Could you verify whether the entry UAUUAAUCUGUAGGAUAUGUAGGAUAUGGACGAGGAUCACCCGAGCAGCAUCAGCGCACCAGAGGACAGAAGGACGGCCGGGUG [pwkr ssNG2 2F5 2FMN.24] (Eterna round: R96, puzzle: Same State NG 2) shows apparent KD of MS2 coat protein of no less than 100 nM? Satisfied

Is apparent KD of MS2 coat protein at least 100 nM? Consider AUUAUUAAUAUAGGAUAUGUAAAACAUGAGGAUCACCCAUGUGAUAUCGUGAGUAAGGAGAGAGAACAGAAGGAUAUUUUUUUU [JMF's solution 3] (Eterna round: R96, puzzle: Same State NG 2) Not satisfied

Hello, I need to know if GGCGAAGGAGAAGGAUAUAUCUUGGACAUAUAGAUGCACAUGAGGAUCACCCAUGUCAUCAUGGGAUAGAAGGUCUGCUUCACC [Eternabot solution 33] (Eterna round: R96, puzzle: Same State NG 2) has measured apparent KD of MS2 coat protein not below 100 nM. Thanks! Not satisfied

Does GUGGUCAGACAUGAGGAUCACCCAUGUGGAAUAAAUAAGGACUAGGAUAUCGAAUAUAGGAUAUACGAGAAGGAGUGGUUGGUG (Eterna round: R96, puzzle: Same State NG 3) have a reported apparent KD of MS2 coat protein of at least 100 nM? Not satisfied

Say whether UAUGACUUACAAGGAUAUUAAUAACAUGAGGAUCACCCAUGUGGCUGUGUGUGUUAGAUAAGCUAUAAGAAGGUGUGUGUGUUU [JR_SSNG2_Sub095] (Eterna round: R96, puzzle: Same State NG 2) shows apparent KD of MS2 coat protein of 100 nM or more. Satisfied

Exam item: decide whether the reported apparent KD of MS2 coat protein for AAUUAAGAUCAAGGAUAUCACGUCGUUUAGACGUGAGAAGGUGAUCCAUACAUGAGGAUCACCCAUGUAUAACAUGAAUUAAUU [SSNG1/8-B3] (Eterna round: R96, puzzle: Same State NG 1) is at least 100 nM. Satisfied
